All figures here come from a melting point compilation (Tetko et al.; mined from patent text by program, amines drawn as free bases though some values may be those of a salt).

melting point overview

Examples from the recorded data:
> print(dat)
                                   compound         metric         result
1  CCOC(=O)C1=C(NC(=O)Nc2ccc(Cl)c(C(=O)OCC)c2)CCC1  melting point  110 to 112 °C
2  Cc1[nH]c(C(=O)SCC(=O)O)nc1-c1cc(C(C)(C)C)c(O)c(C(C)(C)C)c1  melting point  252 to 254 °C
3  N#CCOc1ccc(CN2C(=O)c3cccc(NC(=O)c4ccc(Cl)s4)c3C2=O)cc1  melting point         199 °C
4                    CCC(=O)Nc1ccccc1C(=O)O  melting point         120 °C
5  N#Cc1cnc2ccc(NC(=O)C#CCN3CCOCC3)cc2c1Nc1cccc(Br)c1  melting point  112 to 115 °C
6           NNc1ccc(-c2nnn(Cc3ccccc3)n2)cc1  melting point  182 to 185 °C
7     C=C1c2ccccc2C2(CCN(C)CC2)c2cccc(O)c21  melting point  117 to 120 °C
8  CC(ON=Cc1c(F)cccc1Cl)C(=O)O (stereo not given)  melting point  106 to 107 °C

Query :: # melting point lookup, item COc1ccc2c3c(c(=O)oc2c1)CN(Cc1ccnc2ccccc12)CC3
Result :: 186 to 188 °C

Query :: # melting point lookup, item CCCn1c(=O)c2c(NC)n[nH]c2n(Cc2cccnc2)c1=O
Result :: > 300 °C
